Reference for the values: patent US20240174690A1

assay: Caco-2 assay (permeability PappAB, PappBA, efflux ratio); format: in vitro ADME; conditions: human, Caco-2; apical to basolateral; 10 μM test compound, pH 7.4
Heads up, the class ranges for Papp A→B at 90 min, 10 μM are bottom (below 1 ×10⁻⁶ cm/s), middle (1 ×10⁻⁶ cm/s to below 4 ×10⁻⁶ cm/s), top (4 ×10⁻⁶ cm/s or more)

mol: C[C@H](Oc1cc(N2C[C@@H]3[C@@H](N)[C@@H]3C2)nc(-c2noc3c2CCC[C@@]32CCCc3sc(N)c(C#N)c32)n1)[C@@H]1CCCN1C
answer.label: bottom
--
mol: C[C@H](Oc1cc(N2CC(N(C)C)C2)nc(-c2noc3c2CCC[C@@]32CCCc3sc(N)c(C#N)c32)n1)[C@@H]1CCCN1C
answer.label: middle
--
mol: C[C@H](O)Cn1ccc(-c2cc(O[C@@H](C)[C@@H]3CCCN3C)nc(-c3onc4c3CCC[C@@]43CCCc4sc(N)c(C#N)c43)n2)n1
answer.label: middle
--
mol: CC(C)N1CCCN(c2cc(-c3ccn(C)n3)nc(-c3noc4c3CCC[C@@]43CCCc4sc(N)c(C#N)c43)n2)[C@@H](C)C1
answer.label: middle
--
mol: CC(=O)N1CC=C(c2cc(O[C@@H](C)[C@@H]3CCCN3C)nc(-c3noc4c3CCC[C@@]43CCCc4sc(N)c(C#N)c43)n2)CC1
answer.label: middle
--
mol: C[C@H](Oc1cc(N2CCNC3(CCC3)C2)nc(-c2noc3c2CCC[C@@]32CCCc3sc(N)c(C#N)c32)n1)[C@@H]1CCCN1C
answer.label: bottom
--
mol: C[C@H](Oc1cc(N2CCOC2=O)nc(-c2noc3c2CCC[C@@]32CCCc3sc(N)c(C#N)c32)n1)[C@@H]1CCCN1C
answer.label: top
--
mol: C[C@H](Oc1cc(N2CCNC3(CCC3)C2)nc(-c2onc3c2CCC[C@@]32CCCc3sc(N)c(C#N)c32)n1)[C@@H]1CCCN1C
answer.label: middle
--
mol: C[C@H](Oc1cc(N2CCNC3(CC3)C2)nc(-c2onc3c2CCC[C@@]32CCCc3sc(N)c(C#N)c32)n1)[C@@H]1C[C@@H](F)CN1C
answer.label: top
--
mol: C[C@H](Oc1cc(N2CCNC[C@]23CCOC3)nc(-c2noc3c2CCC[C@@]32CCCc3sc(N)c(C#N)c32)n1)[C@@H]1CCCN1C
answer.label: bottom
--
mol: C[C@H](Oc1cc(-c2ccn(C3COC3)n2)nc(-c2noc3c2CCC[C@@]32CCCc3sc(N)c(C#N)c32)n1)[C@@H]1CCCN1C
answer.label: middle
--
mol: CO[C@@H]1C[C@@H]([C@H](C)Oc2cc(-c3ccn(C4COC4)n3)nc(-c3noc4c3CCC[C@@]43CCCc4sc(N)c(C#N)c43)n2)N(C)C1
answer.label: top
--
mol: CO[C@@H]1C[C@@H]([C@H](C)Oc2cc(-c3ccn(C)n3)nc(-c3onc4c3CCC[C@@]43CCCc4sc(N)c(C#N)c43)n2)N(C)C1
answer.label: top

---

target: KRAS (G12D)::SOS1 (Homo sapiens (Human), UniProt P01116, G12D); experiment: KRAS::SOS1 AlphaScreen binding assay, KRAS G12D
Sequence (P01116 other isoform, or with tags, fused parts or gaps G12D): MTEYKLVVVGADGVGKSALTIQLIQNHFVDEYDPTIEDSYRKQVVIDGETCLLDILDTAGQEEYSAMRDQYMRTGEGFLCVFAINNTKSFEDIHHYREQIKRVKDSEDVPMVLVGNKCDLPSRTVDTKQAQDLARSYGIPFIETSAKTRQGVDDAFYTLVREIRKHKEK
pIC50: −log10 of the molar value.

mol: CO[C@H]1CCN(C)[C@@H]1[C@H](C)Oc1cc(-n2ccc(C(=O)N[C@H]3CCOC3)n2)nc(-c2onc3c2CCC[C@@]32CCCc3sc(N)c(C#N)c32)n1
pIC50: 9.00

mol: C[C@H](Oc1cc(N2C[C@H](C)N(C)[C@@H](C)C2)nc(-c2noc3c2CCC[C@@]32CCCc3sc(N)c(C#N)c32)n1)[C@@H]1CCCN1C
pIC50: 9.00

mol: C[C@H]1CNCCCN1c1cc(-c2ccn(C)n2)nc(-c2noc3c2CCC[C@@]32CCCc3sc(N)c(C#N)c32)n1
pIC50: 7.66

mol: CO[C@H]1CCN(C)[C@@H]1[C@H](C)Oc1cc(-n2ccc(CC(=O)NC(C)C)n2)nc(-c2noc3c2CCC[C@@]32CCCc3sc(N)c(C#N)c32)n1
pIC50: 9.00

mol: C[C@H](Oc1cc(N2CCOC2=O)nc(-c2noc3c2CCC[C@@]32CCCc3sc(N)c(C#N)c32)n1)[C@@H]1CCCN1C
pIC50: 9.00

mol: C[C@H](Oc1cc(-c2cccc(C(N)=O)c2)nc(-c2noc3c2CCC[C@@]32CCCc3sc(N)c(C#N)c32)n1)[C@@H]1CCCN1C
pIC50: 8.22

mol: C[C@H]1CNCCCN1c1nc(-c2onc3c2CCC[C@@]32CCCc3sc(N)c(C#N)c32)cc(C(F)(F)F)n1
pIC50: 6.46

mol: C[C@H](Oc1cc(N2CC[C@H](N(C)C)C2)nc(-c2onc3c2CCC[C@@]32CCCc3sc(N)c(C#N)c32)n1)[C@@H]1CCCN1C
pIC50: 9.00

mol: C[C@H](Oc1cc(N2CCOC3(COC3)C2)nc(-c2noc3c2CCC[C@@]32CCCc3sc(N)c(C#N)c32)n1)[C@@H]1CCCN1C
pIC50: 9.00

mol: C[C@H](Oc1cc(-n2cc3ccn([C@@H]4CCOC4)c(=O)c3n2)nc(-c2noc3c2CCC[C@@]32CCCc3sc(N)c(C#N)c32)n1)[C@@H]1CCCN1C
pIC50: 8.70

mol: C[C@H](Oc1cc(-n2ccc(C(=O)N3CCCC3)n2)nc(-c2noc3c2CCC[C@@]32CCCc3sc(N)c(C#N)c32)n1)[C@@H]1CCCN1C
pIC50: 9.00

mol: C[C@H](Oc1cc(-n2ccc(-c3cn(CC4(C)COC4)nn3)n2)nc(-c2noc3c2CCC[C@@]32CCCc3sc(N)c(C#N)c32)n1)[C@@H]1CCCN1C
pIC50: 9.00
